Target: Scavenger receptor class B member 1 (Mus musculus) (UniProt Q61009)
Sequence (Q61009 whole entry, looked up): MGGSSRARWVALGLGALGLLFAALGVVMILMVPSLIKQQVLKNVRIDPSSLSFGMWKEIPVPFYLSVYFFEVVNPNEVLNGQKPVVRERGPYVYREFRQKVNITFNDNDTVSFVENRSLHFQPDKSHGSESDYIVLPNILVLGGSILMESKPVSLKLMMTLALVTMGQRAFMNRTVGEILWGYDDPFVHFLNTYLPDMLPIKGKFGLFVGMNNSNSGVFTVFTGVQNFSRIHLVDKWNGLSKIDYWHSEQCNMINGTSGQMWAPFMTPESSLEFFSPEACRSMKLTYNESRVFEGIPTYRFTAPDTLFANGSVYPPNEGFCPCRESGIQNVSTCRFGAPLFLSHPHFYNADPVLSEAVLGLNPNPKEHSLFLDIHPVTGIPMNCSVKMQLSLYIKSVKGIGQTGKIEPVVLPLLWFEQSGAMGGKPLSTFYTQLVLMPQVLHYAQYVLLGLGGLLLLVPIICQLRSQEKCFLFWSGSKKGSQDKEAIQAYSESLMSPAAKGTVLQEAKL
Experiment: mouse SR-BI DiI-HDL uptake blockers – ldlA[mSR-BI] cells, fluorescence, single point, primary screen (AID 488896);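 also: 0% = median of neutral control wells and 100% = median of positive control wells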
Details: ldlA[mSR-BI] CHO cells, 3 h, at 12.5 µM, active compounds read high
The whole screen tested about 320,000 compounds, of which about 3,100 (0.97%) were called active. Many of the other results were omitted from the sample, so actives are more common in it than they were.
MEASURE_NAME: inhibition (%)
Give the value in % but do not write % after it.

Fill in the blank: the reported inhibition of `Cc1cccc(NC(=O)c2ccc([N+](=O)[O-])o2)c1` is ____.
0.0135

Fill in the blank: the reported inhibition of `Cc1ccc(-c2csc(C(C#N)=C(O)CN3CCN(C(=O)c4ccco4)CC3)n2)cc1` is ____.
4.1

Fill in the blank: the reported inhibition of `Cc1c(Cl)c([N+](=O)[O-])nn1CCCC(=O)Nc1cc(Cl)ccc1Cl` is ____.
-14.8

Fill in the blank: the reported inhibition of `Cc1c(Cl)c([N+](=O)[O-])nn1Cc1ccc(C(=O)N/N=C\c2cc(Cl)ccc2O)o1` is ____.
129

Fill in the blank: the reported inhibition of `COc1ccc(C(=O)Nc2ccc(C3(C#N)CCCC3)cc2)cc1OC` is ____.
82

Fill in the blank: the reported inhibition of `COc1ccc(-c2nn(-c3ccccc3)cc2C(=O)Nc2nccs2)cc1OC` is ____.
74.4

Fill in the blank: the reported inhibition of `O=S(=O)(O)c1cc2onnc2c2ccccc12` is ____.
-15.5

Fill in the blank: the reported inhibition of `C#CCOCCOCCOCCNc1nc(N2CCN(C(=O)Cn3cc(CCO)nn3)CC2)nc(N2CCN(C(=O)[C@H](CCCCN)n3cc(CCCC)nn3)CC2)n1` is ____.
-18.7

Fill in the blank: the reported inhibition of `Cc1cccc(NC(=O)c2sc(-c3ccccc3)nc2-c2ccc([N+](=O)[O-])cc2)c1` is ____.
77.7

Fill in the blank: the reported inhibition of `COc1ccc(CNCCCn2cnc3c(OCc4ccccc4)ncnc32)cc1` is ____.
-7.17

---

Exercise: state measured inhibition for each of the compounds provided.
Target: Scavenger receptor class B member 1 (Mus musculus) (UniProt Q61009)
Test: mouse SR-BI DiI-HDL uptake blockers – ldlA[mSR-BI] cells, fluorescence, single point, primary screen (AID 488896);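 also: 0% = median of neutral control wells and 100% = median of positive control wells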
Details: ldlA[mSR-BI] CHO cells, 3 h, at 12.5 µM, active compounds read high
In all, about 320,000 compounds went through this assay and about 3,100 (0.97%) were called active. Shown is part of a subset that was picked to be rich in actives.
Give the value in % but do not write % after it.

Fill in the blank: the reported inhibition of `Cc1nc2ccc(N)nc2nc1C` is ____.
22.1

Fill in the blank: the reported inhibition of `COc1ccc(S(=O)(=O)N2CCC(C(=O)OCC(=O)c3ccccc3)CC2)cc1[N+](=O)[O-]` is ____.
-14.3

Fill in the blank: the reported inhibition of COc1ccc(NC(=S)NCC2CCN(c3ccc(OC)cc3)C2)cc1 (configuration not stated) is ____.
27.5

Fill in the blank: the reported inhibition of COc1ccc(OC)c(NC(=O)CC(Cc2ccccc2OC)C(=O)O)c1 (configuration not stated) is ____.
-10.9

Fill in the blank: the reported inhibition of `CCOc1cc(NC(=O)c2ccccn2)c(OCC)cc1NC(=O)c1ccc(OC)cc1` is ____.
72.3

Fill in the blank: the reported inhibition of `C=C(C)CNc1cc(S(=O)(=O)N2CCOCC2)ccc1Oc1ccccc1` is ____.
10.5

Fill in the blank: the reported inhibition of `CCOc1ccc(NC(=O)Nc2cc(C)ccc2OC)cc1` is ____.
10.4

Fill in the blank: the reported inhibition of `CCOc1cc2ccccc2cc1C(=O)Nc1ccccn1` is ____.
58.6

Fill in the blank: the reported inhibition of `Cc1cc(OCCCC(=O)Nc2cc(S(=O)(=O)N3CCOCC3)ccc2N2CCOCC2)ccc1Cl` is ____.
17.2

Fill in the blank: the reported inhibition of CC12CCCCC1=CC(=O)CC2 (configuration not stated) is ____.
-0.111

Fill in the blank: the reported inhibition of `COC(=O)Cc1nc2c(N)nc(N)nc2[nH]c1=O` is ____.
-15.9

Fill in the blank: the reported inhibition of `CCOc1ccccc1NC(=O)Nc1cc(OC)ccc1OC` is ____.
76.1
